Biological target: NEMOw (UniProt Q9Y6K9 44-112)
Assay: fluorescence polarisation
pKd: −log10 of the molar value. No end group written: not given here. *: point of attachment. 5FAM = O=C1OC2(c3ccc(O)cc3Oc3cc(O)ccc32)c2ccc(C(=O)*)cc21
quantityKind: pKd

Q: Give the reported pKd for this binder. 5FAM-PARRSEELVAEAHNLCTLLENAIQDTVREQDQSFTALDWSWLQTE (peptide, UniProt O14920 701-745, looked up, not fully specified) [5′FAM-IKKβ_(KK/RR)]
Result: ~5.00

Source of measurements: paper PMC4222529
